B1: CPEB3 Ribozyme (parent)
chain: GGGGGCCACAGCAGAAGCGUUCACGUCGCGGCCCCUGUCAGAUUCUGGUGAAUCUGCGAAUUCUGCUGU

Variants of: B1
TEST_METHOD_NOTES: self-cleavage, relative activity (ratio to wild type); higher = more cleavage; co-transcriptional
So basically: self-cleavage at 0.6 or higher? That is Y. Lower than 0.6? That is N.

# VARIANT_IDENTIFIER, LABEL_VALUE
data = [
    ("A16G U20A", "N"),
    ("G14U G47C", "Y"),
    ("U44C U55C", "N"),
    ("C18U U62C", "N"),
    ("C45A C63A", "Y"),
    ("G1A C24U", "N"),
    ("C22A G30U", "N"),
    ("C12U U62G", "N"),
    ("C24A G30U", "N"),
    ("G5A G14U", "N"),
    ("C7U A16C", "N"),
    ("C24U C45G", "Y"),
    ("U55G A59G", "Y"),
]
